Kindly state growth inhibition for each of the entries shown.
assay: NCI Yeast Anticancer Drug Screen. Data for the mlh1 rad18 strain (AID 175); settings: S. cerevisiae mlh1 rad18 strain growth inhibition; at 50.0 µM; hits give high values
Compounds without any hit were thinned out: in the full panel of roughly 79,000, 15% have a hit.
Write the answer as a number in %, unit excluded.

Q) Given CC(SC(C)C(=O)N/N=C/c1ccc(N(CCCl)CCCl)cc1)C(=O)N/N=C\c1ccc(N(CCCl)CCCl)cc1 (stereo not drawn) , respond with its growth inhibition.
A) 26.1

Q) Item NS(=O)(=O)c1cccc([As](=O)(O)O)c1 : provide growth inhibition
A) -3.6

Q) Specify measured growth inhibition for C[C@]12CCc3nonc3C1CC[C@@H]1C2CC[C@@]2(C)C1CC[C@@H]2O (stereo partly drawn) .
A) -2.1

Q) Indicate its recorded growth inhibition; the compound in question is O=NN(c1ccccc1)c1ccccc1
A) 34.5

Q) # return recorded growth inhibition for entry CC(=O)CC(C)=O.CC(=O)CC(C)=O.CC(=O)CC(C)=O.[Tb]
A) -19.8

Q) Specify reported growth inhibition for the compound shown: CCCCC[As](=O)(O)O
A) 7.95

Q) Report measured growth inhibition; entry is O=Cc1ccccc1O.[Zn+2]
A) 1.6

Q) Answer with reported growth inhibition of [Cl][Pt]([Cl])[Cl].[NH-]C1CN2CCC1CC2 (stereo not drawn)
A) -7.55

Q) Tell me growth inhibition reported for [CH3][Sb]1([Cl])[CH2]CCC[CH2]1
A) 36.2

Q) Name the recorded growth inhibition of the compound listed here: CCN(CC)CCN(CC)CC.CCN(CC)CCN(CC)CC.[Cu+2].[Cu+2].[O-][Cl+3]([O-])([O-])[O-].[OH3+].[OH3+]
A) 15.7

Q) Name the recorded growth inhibition of the item C#CC(=O)[O][Sn]([c]1ccccc1)([c]1ccccc1)[c]1ccccc1 in your answer.
A) 99

Q) Give the measured growth inhibition for C1CCNCC1.COc1ccccc1C(=O)[CH-]C(=O)C(F)(F)F.COc1ccccc1C(=O)[CH-]C(=O)C(F)(F)F.COc1ccccc1C(=O)[CH-]C(=O)C(F)(F)F.COc1ccccc1C(=O)[CH-]C(=O)C(F)(F)F.[Eu+3]
A) 64.5

Q) For NC(=O)c1cccc([As]=O)c1 (stereo not drawn) , write its growth inhibition.
A) -17.6

Q) Give the value of growth inhibition reported for the following: C=CC[As+](c1cccc2ccccc12)(c1cccc2ccccc12)c1cccc2ccccc12
A) -11.5

Q) // fetch growth inhibition given entry CCC1(O)CC(OC2CC(N(C)C)C(OC3CC(O)C(OC4CCC(=O)C(C)O4)C(C)O3)C(C)O2)c2c(cc3c(c2O)C(=O)c2c(O)ccc(O)c2C3=O)C1C(=O)OC (stereo not drawn)
A) 89

Q) Provide one value: measured growth inhibition of O=[N+]([O-])c1ccc(OCc2ccc(S(=O)(=O)F)cc2Cl)c(Cl)c1
A) -3.6

Q) Given the compound C[Si](C)(C)[C@@]1([Se]c2ccccc2)CC[C@@H]1C(=O)c1ccccc1 , write its reported growth inhibition.
A) -23.9

Q) Read off the recorded growth inhibition for CC(=O)CP(=O)(O)O
A) -6.35

Q) State its growth inhibition: O=[N+]([O-])c1ccc(CI)cc1
A) 23.3

Q) Determine from records and report growth inhibition for O=C1NC(=O)C2(CCOCC2)C(=O)N1
A) 0.15

Q) Give me measured growth inhibition, please, for this compound: Cc1nc2ccccc2c(=O)n1-c1ccccc1F
A) -29.8

Q) Using the record for CCCCCCCC(=O)O.[Sn] , state its measured growth inhibition.
A) -19

Q) Note growth inhibition for the compound shown: N#CCCc1ccccc1
A) 0.65

---

assay: NCI Yeast Anticancer Drug Screen. Data for the cln2 rad14 strain (AID 165);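 further: 0% = growth equal to vehicle treated cultures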; details: S. cerevisiae cln2 rad14 strain, at 50.0 µM, hits give high values
This is part of a sample that, as a whole, favours compounds with a hit. Of some 79,000 tested, about 15% had one in any assay.
Please respond with reported growth inhibition for every item in the list.
Give the quantity in %, number only.

Q) Consider the compound c1cc[c]([Hg][S]c2nc3ccccc3s2)cc1 and give its recorded growth inhibition.
A) -37.3

Q) // Input: O=[N+]([O-])c1cc(S(=O)(=O)O)cc([N+](=O)[O-])c1Cl . Output its growth inhibition only.
A) 50.5

Q) Answer with the recorded growth inhibition for the compound listed here: CN(C)C1(c2ccc3ccccc3c2)CSC1
A) -16.2

Q) Tell us which growth inhibition value is on record for Cc1nc2cccc(F)c2c(=O)n1-c1nnc(C(F)(F)F)s1
A) 10.8

Q) Retrieve growth inhibition measured for C=Cn1nnc(N)n1 and print it.
A) 4.55

Q) Output growth inhibition of O=C(Nc1ccccc1F)C(Cl)(Cl)Cl
A) -5

Q) Output measured growth inhibition for this item: CC1C(C)(C)P(=O)(Oc2cccc3cccnc23)C1(C)C (configuration not stated)
A) 64.6

---

test: NCI Yeast Anticancer Drug Screen. Data for the cln2 rad14 strain (AID 165);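 further: 0% = growth equal to vehicle treated cultures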; conditions: S. cerevisiae cln2 rad14 strain, at 50.0 µM, hits give high values
The panel holds about 79,000 compounds, 15% with a hit somewhere; the sample as a whole holds those more often.
parameter-measured: growth inhibition (%)
Your answer should be a plain number; it is taken to be in %.

Q) Please report the measured growth inhibition for OC1[C@@H]2[C@@H](O)CCCN2C[C@@H](O)[C@H]1O (some centres not stated)
A) -20.6

Q) Read the entry CSC(SC)=C(C(=O)O)P(=O)(O)O and write its reported growth inhibition.
A) 19.1

Q) Provide only the value of recorded growth inhibition for CCOP(=O)(OCC)C(=O)N(CC)CC
A) 7.15

Q) Tell me measured growth inhibition for Cc1cc2oc(=O)c3c(c2c(O)c1CN1CCOCC1)CCCC3 please.
A) 15.6

Q) Fill in reported growth inhibition for this entry: CN(C)C(=O)CCCc1ccc(N(CCCl)CCCl)cc1
A) 9.55

Q) Please supply the value of reported growth inhibition for the item CC(Cl)CNC1CCCCC1 (configuration not stated)
A) -10.6

Q) Provide measured growth inhibition value, entry: CNC(=O)N1CN(c2ccccc2)C2(CCN(Cc3ccccc3)CC2)C1=O
A) -2.8

---

experiment: NCI Yeast Anticancer Drug Screen. Data for the cln2 rad14 strain (AID 165);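 further: 0% = growth equal to vehicle treated cultures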; conditions: S. cerevisiae cln2 rad14 strain, at 50.0 µM, hits give high values
The panel holds about 79,000 compounds, 15% with a hit somewhere; the sample as a whole holds those more often.
Field: growth inhibition. Provide a value for each of the molecules that follow.
Output spec: scalar in %, unitless text.

Q) Identify measured growth inhibition associated with Cc1cc(CCl)c(O)c(CCl)c1
A) -49.7

Q) Dear colleague, please send me the reported growth inhibition for O=C(O)C(Cl)C(=O)O when you can.
A) -26.4

Q) Provide measured growth inhibition value, entry: CNC(=O)O/N=C(\SC)C(=O)N(C)C
A) -31.2

Q) Write down growth inhibition measured for item Cc1cc(N(CCCl)CCCl)ccc1C1N(Cc2ccc(N(CCCl)CCCl)cc2)CCCN1Cc1ccc(N(CCCl)CCCl)cc1
A) -5.1

Q) Please look at this molecule and report its growth inhibition: CC(=O)NC1C([Se][As](C)C)OC(COC(C)=O)C(OC(C)=O)C1OC(C)=O (stereo not given)
A) -7.3

Q) Retrieve growth inhibition measured for [C-]#[O+].[C-]#[O+].[C-]#[O+].[C-]#[O+].[C-]#[O+].[C-]#[O+].[C-]#[O+].[C-]#[O+].[C-]#[O+].[CH2-]C.[Co].[Co].[Co] and print it.
A) -2.3

Q) Return growth inhibition (reported value) for this molecule: CC(C)(C)NP(=O)(NC(C)(C)C)NC(C)(C)C
A) 4.85

Q) Could you please provide reported growth inhibition for O[C@H](c1ccccc1)[C@@H](c1ccccc1)N1CCCCC1 ? Thanks!
A) -28

Q) Write down growth inhibition measured for item CCCCCC(=O)c1c(O)cc2c(c1O)C(=O)c1c(O)cc(O)cc1C2=O
A) 10.3

Q) Give growth inhibition for the following molecule: Clc1ccc(C(c2ccccc2Cl)C(Cl)(Cl)Cl)cc1 (stereo not given)
A) -44.6

---

assay: NCI Yeast Anticancer Drug Screen. Data for the mlh1 rad18 strain (AID 175); details: S. cerevisiae mlh1 rad18 strain growth inhibition; at 50.0 µM
About 79,000 compounds went through this panel and 15% of them were active in at least one assay; those are over-represented in the sample as a whole. Active and inactive are the calls of the source. Cut-off read from the data, not from the text of the source: active = growth inhibition above about 70%; inactive = the rest.
One label from this list, please: active, inactive

Q) // return assay outcome for CC(=O)CCC(=O)O.[Ni]
A) inactive

Q) Per the assay record, what outcome was assigned to CCOP(=O)(OCC)Oc1c(Cl)c(Cl)c(O)c(Cl)c1Cl ?
A) inactive

Q) What outcome does the record of this test show for Cc1nc2ccc(Br)cc2c(=O)n1-c1nnc(C(C)(C)C)s1 ?
A) inactive

Q) Hi, sorry to bother you, what did the test record for CC(Oc1ccc([N+](=O)[O-])cc1Cl)C(=O)Nc1ccc(S(=O)(=O)F)cc1 (stereo unspecified) ?
A) inactive

Q) Can you look up the reported call for O=[As](O)(O)c1cccc(O)c1 for me?
A) inactive

Q) Give the logged outcome of this assay for the following compound: CC(=O)[C-](Br)C(C)=O.CC(=O)[C-](Br)C(C)=O.CC(=O)[C-](Br)C(C)=O.[Ru+3]
A) inactive

Q) Which outcome did this test record for the compound CC(=O)Nc1cc([As](=O)(O)O)ccc1O ?
A) inactive

Q) Please indicate how the test categorized CCC1CC[N-]CC1.CCC1CC[N-]CC1.CCC1CC[N-]CC1.CCC1CC[N-]CC1.N#C[S-].N#C[S-].[Co] .
A) inactive

Q) Per the records of this test, what outcome belongs to CCN1C(=O)CC(=O)N(CC)C1=S ?
A) inactive

Q) Hi, sorry to bother you, what did the test record for CC1CC[Si](C)(C)CC12C(=O)NC(=O)NC2=O (stereo unspecified) ?
A) inactive

Q) Dear colleague, could you share the recorded outcome for Cc1cc(NC(=O)CCc2ccc(N)cc2)ccc1S(=O)(=O)F when you have a moment?
A) active

Q) Status in this test for Cc1cccc(CCF)c1 ?
A) inactive

Q) Hey, what did the test say about COc1ccc(N)cc1N ?
A) inactive

Q) I would be grateful if you could indicate the recorded call for COC(=O)C[N+]1(C)C2CCC1CC(O)C2 (stereo unspecified) .
A) inactive

Q) Could you kindly confirm the outcome this assay logged for CCOP(O)OCC ?
A) inactive

Q) Record request — test call for CC1CCCCN1 (stereo unspecified)
A) inactive

Q) Hey, what did the test say about CCC1C(=O)OCC1Cc1cncn1C (stereo unspecified) ?
A) inactive

Q) Name the outcome recorded for OC1(c2ccccc2)N=C(c2ccccc2)c2ccccc2-n2cccc21 (stereo unspecified) in the assay.
A) inactive

Q) Per the records of this test, what outcome belongs to CCCCN1C(=O)CC(=O)N(c2ccccc2)C1=O ?
A) inactive

Q) Dear all, I need the recorded test outcome for COC(=O)C(O)(c1ccccc1)C1CCCC1 (stereo unspecified) , thank you.
A) inactive

Q) So what was the verdict on O=C(O)c1ccccc1N(CCO)CCCl in this test?
A) inactive

Q) Write down the call the test reported for this compound. Item: ClCc1ccc(Cl)c(Cl)c1
A) inactive

Q) What did the test return for C#CC(C)N1CCC2(CC1)C(=O)NCN2c1ccccc1 (stereo unspecified) ?
A) inactive

Q) Returns: the outcome recorded for O=[N+]([O-])c1cc(S(=O)(=O)O)cc([N+](=O)[O-])c1Cl in this assay.
A) inactive

Q) Field: outcome | Entry: O=[N+]([O-])c1cc2n[nH]nc2c2nonc12
A) inactive

Q) Which result was noted for this compound in the test: O=C(Cc1nc2ccccc2c(=O)n1-c1c(Cl)cccc1Cl)c1ccncc1
A) inactive

FYI, the data here is from PubChem BioAssay (NCI).
